Below, each entry is listed with its recorded LD50.
# ASSAY DETAILS: acute toxicity (LD50), intraperitoneal administration in mice
# Format: in vivo, mice (male, 20 g)
# CONDITION: mouse, in vivo, ip, intraperitoneal, mice (male, 20 g); read-out: LD50
ASSAY READOUT: LD50

1) COc1cc2ccc(S(=O)(=O)N[C@@H](CCCNC(=N)N)C(=O)N3Cc4ccccc4CC3C(=O)O)cc2cc1OC (stereo partly shown) :: > 1000 mg/kg
2) COc1cc2ccc(S(=O)(=O)N[C@@H](CCCNC(=N)N)C(=O)N3Cc4ccccc4C3C(=O)O)cc2cc1OC (stereo partly shown) :: > 1000 mg/kg
3) COCCN(CC(=O)O)C(=O)[C@H](CCCNC(=N)N)NS(=O)(=O)c1ccc2cc(OC)c(OC)cc2c1 :: 1900 to 2400 mg/kg
4) COc1ccc2ccc(S(=O)(=O)N[C@@H](CCCNC(=N)N)C(=O)N3CCOCC3C(=O)O)cc2c1 (stereo partly shown) :: > 1000 mg/kg
